- system under test: T1, RSV F glycoprotein (NUF4) (respiratory syncytial virus)
- T1 chain 1: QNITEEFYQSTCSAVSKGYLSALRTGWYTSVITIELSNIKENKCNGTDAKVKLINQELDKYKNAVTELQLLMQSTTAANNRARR
- T1 chain 2: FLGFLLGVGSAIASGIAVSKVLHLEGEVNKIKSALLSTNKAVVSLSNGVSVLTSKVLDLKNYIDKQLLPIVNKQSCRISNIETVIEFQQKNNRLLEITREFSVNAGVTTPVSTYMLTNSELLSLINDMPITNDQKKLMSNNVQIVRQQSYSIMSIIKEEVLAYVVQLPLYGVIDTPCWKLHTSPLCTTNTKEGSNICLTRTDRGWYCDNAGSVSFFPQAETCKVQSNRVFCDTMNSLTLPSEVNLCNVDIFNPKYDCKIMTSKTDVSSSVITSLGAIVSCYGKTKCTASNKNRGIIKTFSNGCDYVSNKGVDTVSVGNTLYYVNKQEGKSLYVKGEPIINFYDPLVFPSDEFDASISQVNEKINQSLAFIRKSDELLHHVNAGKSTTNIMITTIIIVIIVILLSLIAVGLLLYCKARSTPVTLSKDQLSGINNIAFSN
- test method notes: BIAcore, mAb vs NUF4 (2:1)
assay metric: koff (s⁻¹)
Please give a number only; it is taken to be in s⁻¹.

# binder, assay metric, unit label, value measured
rows = [
    ("P12f4 (monoclonal antibody) (antibody, V domains shown, mAb with framework and constant regions of SYNAGIS) VH: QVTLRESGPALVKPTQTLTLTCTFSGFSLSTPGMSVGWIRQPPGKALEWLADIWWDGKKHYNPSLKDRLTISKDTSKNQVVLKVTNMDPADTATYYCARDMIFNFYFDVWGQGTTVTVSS VL: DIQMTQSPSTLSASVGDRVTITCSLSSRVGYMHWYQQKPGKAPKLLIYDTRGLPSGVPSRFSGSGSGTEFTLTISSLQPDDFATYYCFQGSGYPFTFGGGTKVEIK", "koff", "s⁻¹", 0.000636),
    ("A8c7 (monoclonal antibody) (antibody, V domains shown, mAb with framework and constant regions of SYNAGIS) VH: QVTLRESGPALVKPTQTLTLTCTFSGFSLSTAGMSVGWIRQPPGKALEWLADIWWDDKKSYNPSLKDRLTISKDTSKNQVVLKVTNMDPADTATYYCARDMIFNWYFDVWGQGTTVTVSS VL: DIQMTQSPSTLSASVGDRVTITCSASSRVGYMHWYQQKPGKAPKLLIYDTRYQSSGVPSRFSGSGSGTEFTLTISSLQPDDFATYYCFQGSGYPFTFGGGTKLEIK", "koff", "s⁻¹", 0.00114),
]

Input A17d4 (monoclonal antibody) (antibody, V domains shown, mAb with framework and constant regions of SYNAGIS) VH: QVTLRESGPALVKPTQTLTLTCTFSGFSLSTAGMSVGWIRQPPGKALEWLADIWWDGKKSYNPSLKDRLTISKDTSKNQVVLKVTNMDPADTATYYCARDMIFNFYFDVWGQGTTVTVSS VL: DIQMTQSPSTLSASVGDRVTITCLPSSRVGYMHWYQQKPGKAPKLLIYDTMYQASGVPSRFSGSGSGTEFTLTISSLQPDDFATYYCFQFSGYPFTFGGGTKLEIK . Output koff: 0.000292

The origin of these recorded values is patent US20030091584A1.
